The reported measurements were obtained from the supplement of paper PMC10567573.

B1: DFFB (parent)
chain: KLNCDPSRIYKPQTRLKRKQPVRK

# Variants of: B1
# Procedure Text: protein stability index of a GFP-peptide fusion (GPS, HEK-293T) (PSI 1-6); higher = more stable;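 further: lentivirally expressed fusions sorted by FACS into six bins by GFP to DsRed ratio, PSI derived from sequencing read proportions per bin multiplied by bin number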
# Condition Description: c terminus: a fixed tail appended
Observed Property: protein stability index

    mutation_annotation  observed_result
 0                 K19E             2.93
 1                  R8I             2.93
 2                 K19D             3.53
 3                 Q13E             4.16
 4                  I9W             2.82
 5                  K1C              3.2
 6                  R8S              3.2
 7                 K11M             3.02
 8                 K11C              3.9
 9                  D5Y             3.75
10                 R15Y             2.17
11                  P6G             3.44
12                 P21E             3.28
13                 K11L             2.99
14                 K19T             3.52
15                  L2K             2.28
16                 K24A             4.04
